Kindly supply the reported pEC50 values for the records listed here.
# Tested Target: GSK-3β (Homo sapiens, UniProt P49841)
# Sequence (P49841 whole entry): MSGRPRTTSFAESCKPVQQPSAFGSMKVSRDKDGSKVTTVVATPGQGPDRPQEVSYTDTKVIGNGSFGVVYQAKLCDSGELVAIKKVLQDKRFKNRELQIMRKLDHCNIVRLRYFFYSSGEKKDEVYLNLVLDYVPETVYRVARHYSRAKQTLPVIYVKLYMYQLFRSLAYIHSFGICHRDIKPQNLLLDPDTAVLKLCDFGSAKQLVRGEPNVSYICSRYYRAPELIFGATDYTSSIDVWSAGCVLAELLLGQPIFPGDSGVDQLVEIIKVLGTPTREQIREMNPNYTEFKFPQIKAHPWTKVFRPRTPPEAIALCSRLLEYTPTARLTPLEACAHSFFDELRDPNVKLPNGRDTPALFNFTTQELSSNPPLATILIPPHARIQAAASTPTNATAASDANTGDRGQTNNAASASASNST
# Method Notes: GSK-3β activity assay (Z′-LYTE)
# Conditions: n = 3; read-out: Mean EC50 in the inhibition of GSK-3β activity
Entry type: numeric. Quantity: pEC50, the -log10 of concentration in molar units.

Ask: So what does the record say about pEC50 for CCCCOc1c(OC)cc2c3c1Oc1cc4c(cc1OC)CCN(C)C4Cc1ccc(cc1)Oc1cc(ccc1OC)CC3N(C)CC2 (centres unmarked) ?
Result: 5.63

Ask: Also CCOc1c(OC)cc2c3c1Oc1cc4c(cc1OC)CCN(C)C4Cc1ccc(cc1)Oc1cc(ccc1OC)CC3N(C)CC2 (centres unmarked) ?
Result: 6.07

Ask: Also CCCOc1c(OC)cc2c3c1Oc1cc4c(cc1OC)CCN(C)C4Cc1ccc(cc1)Oc1cc(ccc1OC)CC3N(C)CC2 (centres unmarked) ?
Result: 5.77

Source of measurements: patent US9169268B2
